- Tested System: Short transient receptor potential channel 4 (Mus musculus) (UniProt Q9QUQ5)
- Sequence (Q9QUQ5 whole entry, looked up): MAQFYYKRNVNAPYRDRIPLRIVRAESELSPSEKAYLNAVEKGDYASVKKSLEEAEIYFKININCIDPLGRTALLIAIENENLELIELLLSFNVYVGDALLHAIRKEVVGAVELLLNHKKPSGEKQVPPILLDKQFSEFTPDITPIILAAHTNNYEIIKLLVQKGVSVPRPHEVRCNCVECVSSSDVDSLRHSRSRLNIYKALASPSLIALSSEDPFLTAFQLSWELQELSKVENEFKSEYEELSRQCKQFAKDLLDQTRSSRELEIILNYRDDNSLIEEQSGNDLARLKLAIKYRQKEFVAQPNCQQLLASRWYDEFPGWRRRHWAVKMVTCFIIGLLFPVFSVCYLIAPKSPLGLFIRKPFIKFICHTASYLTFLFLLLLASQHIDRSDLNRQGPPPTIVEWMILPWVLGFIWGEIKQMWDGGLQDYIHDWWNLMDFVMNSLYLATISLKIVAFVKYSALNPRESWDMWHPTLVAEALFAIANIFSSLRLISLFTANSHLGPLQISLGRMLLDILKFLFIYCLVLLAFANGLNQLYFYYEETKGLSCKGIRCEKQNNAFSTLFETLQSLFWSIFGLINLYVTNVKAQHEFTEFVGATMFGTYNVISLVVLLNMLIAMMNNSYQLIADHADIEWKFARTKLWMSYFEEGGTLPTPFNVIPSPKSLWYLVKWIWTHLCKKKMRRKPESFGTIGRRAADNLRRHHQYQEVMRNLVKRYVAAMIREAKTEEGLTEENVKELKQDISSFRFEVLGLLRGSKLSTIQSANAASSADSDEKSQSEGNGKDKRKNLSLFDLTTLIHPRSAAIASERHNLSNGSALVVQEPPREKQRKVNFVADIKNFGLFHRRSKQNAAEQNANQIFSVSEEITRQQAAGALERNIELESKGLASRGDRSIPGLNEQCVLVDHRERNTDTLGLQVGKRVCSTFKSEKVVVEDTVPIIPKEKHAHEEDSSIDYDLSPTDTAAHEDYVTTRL
- Protocol: inhibitors of mouse TRPC4 channel, primary screen, Fluo4 calcium, HEK293 TRPC4beta/mu-opioid cells (AID 2247)
- Assay Setup: DAMGO-evoked Fluo4 calcium flux, at 10 µM
In all, about 300,000 compounds went through this assay and about 1,200 (0.4%) were called active.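 Rule for the calls: active = B-score over 3 SD under the library average, no early fluorescence shift, positive overall ratio signal; inactive = the rest.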 Only a selection was taken, and actives are over-represented in it overall.
Assign a class; possible classes are 1 (active), 0 (inactive)

These recorded examples may help you get a feel for the data.
Compound	Class Label
N#Cc1c(NC(=O)CCCl)sc2c1CCCCC2	0
CC(C)n1c(-c2cccs2)nc2ccccc21	0
COn1c(-c2ccc(Cl)cc2Cl)nc2ncccc21	0
O=C(COC(=O)c1ccc([N+](=O)[O-])cc1Cl)NC(=O)c1ccccc1	0
CC1CCCCC1NC(=O)/C(C#N)=C/C=C/c1ccccc1[N+](=O)[O-] (stereo not given)	0
COC(=O)c1onc(-c2c(OC)cc(OC)cc2OC)c1C(=O)OC	0
CCOC(=O)C1CCN(Cc2ccc(-c3ccccc3)cc2)CC1	0
COc1ccc(-n2ncc3c(SCC(=O)NNC(C)=O)ncnc32)cc1	0

Query: Any idea what this test logged for COc1ccc(-n2ncc3c(N4CCc5ccccc54)ncnc32)cc1 ?
Result: 1

Query: What call does the record list for CCCn1nc(NS(=O)(=O)c2ccc(F)cc2)c2cc3ccccc3nc21 ?
Result: 0

Query: For CCOC(=O)c1cc(C)nc(S(C)(=O)=O)c1C#N , what call appears in the results of this test?
Result: 0

Query: # fetch the recorded call for Clc1ccc(-c2ncc3ccccn23)c(Cl)c1 here
Result: 0

Query: Recorded test outcome, item Cc1ccc2nc(C)cc(N/N=C/c3ccc(F)cc3)c2c1
Result: 0

Query: Given CC(C)n1c(NCc2c[nH]c3ccccc23)nc2ccccc21 , state the outcome it received in this test.
Result: 1

Query: Lab log entry: Nc1ccc(C(=O)N2CCN(S(=O)(=O)c3ccc(Cl)cc3)CC2)cc1[N+](=O)[O-] — outcome as called in the assay?
Result: 0

Query: How was Cc1[nH]n(C)c(=O)c1C(=O)c1c(-c2c(Cl)cccc2Cl)noc1C classified in this test?
Result: 1

Query: Which outcome did this test record for the compound Cc1onc(-c2c(Cl)cccc2Cl)c1C(=O)NNC(=O)c1c(-c2c(Cl)cccc2Cl)noc1C ?
Result: 0

Query: Would you mind telling me which call this test gave CC(C)Sc1ncnc2c1cnn2-c1ccccc1 ?
Result: 0

* * *

- Tested System: Short transient receptor potential channel 4 (Mus musculus) (UniProt Q9QUQ5)
- Protocol: inhibitors of mouse TRPC4 channel, primary screen, Fluo4 calcium, HEK293 TRPC4beta/mu-opioid cells (AID 2247)
- Assay Setup: DAMGO-evoked Fluo4 calcium flux, at 10 µM
The whole screen tested about 300,000 compounds, of which about 1,200 (0.4%) were called active.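 Rule for the calls: active = B-score over 3 SD under the library average, no early fluorescence shift, positive overall ratio signal; inactive = the rest.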 The entries come from a sample that favours actives as a whole.
API: response.call in t for active, f for inactive

Mol	Class Label
O=C(COc1ccccc1Cl)Nc1ccccc1C(=O)NC1CC1	f
CN(C)CCN(C(=O)CN1C(=O)c2ccccc2C1=O)c1nc2cc3c(cc2s1)OCCO3	f
CCN(CC)CCN(C(=O)c1cc(Cl)sc1Cl)c1nc2cc3c(cc2s1)OCO3	f
CCc1ccc(NC(=O)CN2CCC(C(=O)c3ccc(OC)cc3)CC2)cc1	f

Query: Please let me know the test result on file for CN(C)CCN(C(=O)C1CCCCC1)c1nc2cc3c(cc2s1)OCO3 .
Result: t

Source listed as PubChem BioAssay AID2247.
